Data provenance: patent US11512079B2

- System: Rhizomucor pusillus 46342
- experiment-notes: In vitro antifungal assay (Example IX), microdilution broth, MEC
- Assay type: cell-based
- run-parameters: minimum effective concentration (shortening of hyphae), 35° C., 40-48 h, RPMI1640
measurement-type: minimal effective concentration

>>> print(df.to_string())
                                 smiles_repr    result_value
 0  Cc1occc1COc1ccc(Cc2cc(-c3cccnc3N)on2)cn1       > 1 µg/mL
 1   Nc1ncccc1-c1cc(Cc2ccc(OCc3cccs3)nc2)no1  0.1 to 1 µg/mL
 2   Nc1ncccc1-c1cc(Cc2ccc(OCc3nccs3)cc2)no1  0.1 to 1 µg/mL
 3  Nc1ncccc1-c1cc(Cc2ccc(OCCCc3ccccc3)nc2)no1       > 1 µg/mL
 4  Nc1ccc(-c2cc(Cc3ccc(OCc4ccccc4)cc3)no2)c(N)n1  0.1 to 1 µg/mL
 5  CCCc1cccc(OCc2ccc(Cc3cc(-c4cccnc4N)on3)cc2)c1       > 1 µg/mL
 6  Nc1ncccc1-c1cc(Cc2ccc(Cc3ccnc(F)c3F)cc2)no1  0.1 to 1 µg/mL
 7  Nc1ncccc1-c1cc(Cc2ccc(OCCc3cc(F)c(F)cc3F)nc2)no1       > 1 µg/mL
 8  Nc1ccc(-c2cnn(Cc3ccc(OCc4ccccc4)nc3)c2)cn1       > 1 µg/mL
 9  Nc1ncccc1-c1cc(Cc2ccc(OCCc3ccccc3)nc2)no1  0.1 to 1 µg/mL
10  Nc1ncccc1-c1cc(Cc2ccc(OCc3cnccn3)nc2)no1  0.1 to 1 µg/mL
11  Nc1ncccc1-c1cc(Cc2ccc(Oc3cccc(Cl)c3)nc2)no1  0.1 to 1 µg/mL
12   Nc1ncccc1-c1cc(Cc2ccc(Oc3ncccn3)cc2)no1       > 1 µg/mL

====

- Test system: Aspergillus fumigatus MYA3626
- experiment-notes: In vitro antifungal assay (Example IX), microdilution broth, MEC
- Type: cell-based
- run-parameters: minimum effective concentration (shortening of hyphae), 35° C., 40-48 h, RPMI1640
- Procedure: Measurement of antifungal activity: […] Candida albicans 90028, Aspergillus fumigatus MYA3626, Rhizomucor pusillus 46342 and Cryptococcus neoformans […] strains were obtained from American Type Culture Collection (ATCC). […] (A. fumigatus) and 35° C. (R. pusillus). […] The resulting spore suspension was counted and diluted into RPMI1640 medium to adjust to a final suspension of 1-2×10^4 spores/mL. […] This was validated by thorough mixing and reading at 600 nm on a microplate reader. […]
Catalogue of molecules with associated minimal effective concentration
measurement-type: minimal effective concentration

>>> df
                                    molecule       result_value
 0  N#Cc1cccc(COc2ccc(Cc3cc(-c4cccnc4N)on3)cc2)n1     0.1 to 1 µg/mL
 1    Nc1ncccc1-c1cc(Cc2ccc(N3CCCCC3)nc2)no1     0.1 to 1 µg/mL
 2           Nc1ncccc1-c1cc(Cc2ccc(F)nc2)no1          > 1 µg/mL
 3  Nc1ncccc1-c1cc(Cc2ccc(Nc3cc(F)cc(F)c3)nc2)no1          > 1 µg/mL
 4  Nc1ncccc1-c1cc(Cc2ccc(Cc3ccnc(F)c3F)cc2)no1  0.01 to 0.1 µg/mL
 5  Nc1ncccc1-c1cc(Cc2ccc(CNc3cccc(F)c3F)cc2)no1  0.01 to 0.1 µg/mL
 6  Nc1ncccc1-c1cc(Cc2ccc(CNC3CCCCNC3=O)cc2)no1 (stereo not shown)          > 1 µg/mL
 7  Nc1ncccc1-c1cc(Cc2ccc(OCc3cc(F)cc(F)c3)nc2)no1  0.01 to 0.1 µg/mL
 8  Cc1cc(COc2ccc(Cc3cc(-c4cccnc4N)on3)cc2)no1  0.01 to 0.1 µg/mL
 9  Nc1ncccc1-c1cc(Cc2ccc(CNc3ccccc3F)cc2)no1  0.01 to 0.1 µg/mL
10  Nc1ncccc1-c1cc(Cc2cnc(Nc3ccccc3F)c(F)c2)no1  0.01 to 0.1 µg/mL
11  CC(C)(O)c1cccc(Cc2ccc(Cc3cc(-c4cccnc4N)on3)cc2)c1          > 1 µg/mL
12  Nc1ncccc1-c1cc(Cc2ccc(OCc3cccc(Cl)n3)nc2)no1  0.01 to 0.1 µg/mL
13  Nc1ncccc1-c1cc(Cc2ccc(COc3cc(F)ccc3F)cc2)no1  0.01 to 0.1 µg/mL
14  Nc1ncccc1-c1cc(Cc2ccc(Cc3cccc(F)n3)cc2)no1       ≤ 0.01 µg/mL
15   Nc1ncccc1-c1cc(Cc2ccc(Cc3cncnc3)cc2)no1     0.1 to 1 µg/mL
16  Nc1ncccc1-c1cc(Cc2ccc(Cc3ccnc(F)c3)cc2)no1  0.01 to 0.1 µg/mL
17  CC(Oc1ccc(Cc2cc(-c3cccnc3N)on2)cn1)c1ccccn1 (stereo not shown)     0.1 to 1 µg/mL
18  Nc1ncccc1-c1cc(Cc2cccc(OCCc3cccc(F)c3)n2)no1          > 1 µg/mL
19  Nc1ncccc1-c1cc(Cc2ccc(CNc3ccc(F)c(F)c3F)cc2)no1  0.01 to 0.1 µg/mL
20   Nc1ncccc1-c1cc(Cc2ccc(Cc3ccccc3)cc2)no1     0.1 to 1 µg/mL
21   CC(C)=CCOc1ccc(Cc2cc(-c3cccnc3N)on2)cn1  0.01 to 0.1 µg/mL
22  COc1c(F)cc(F)cc1NCc1ccc(Cc2cc(-c3cccnc3N)on2)cc1          > 1 µg/mL
23  Nc1ncccc1-c1cc(Cc2ccc(SCc3ccccc3)nc2)no1  0.01 to 0.1 µg/mL
24  Nc1ncccc1-c1cc(Cc2ccc(C(O)c3ccccc3)cc2)no1 (stereo not shown)     0.1 to 1 µg/mL
25  CC(C)(COc1ccc(Cc2cc(-c3cccnc3N)on2)cn1)c1ccccc1     0.1 to 1 µg/mL
26  Nc1ncccc1-c1cc(Cc2ccc(Oc3cccc(F)n3)c(F)c2)no1  0.01 to 0.1 µg/mL
27  Nc1ncccc1-c1cc(Cc2ccc(OCCc3c(F)cccc3Cl)nc2)no1     0.1 to 1 µg/mL
28           Nc1ncccc1-c1cc(Cc2ccc(O)cc2)no1     0.1 to 1 µg/mL
29  Nc1ncccc1-c1cc(Cc2ccc(Oc3cccc(F)n3)cc2)no1  0.01 to 0.1 µg/mL
30  Nc1ccc(-c2cc(Cc3ccc(Oc4cccc(F)n4)cc3)no2)c(N)n1     0.1 to 1 µg/mL

====

- System: Aspergillus fumigatus MYA3626
- experiment-notes: In vitro antifungal assay (Example IX), microdilution broth, MEC
- Format: cell-based
- run-parameters: minimum effective concentration (shortening of hyphae), 35° C., 40-48 h, RPMI1640
measurement-type: minimal effective concentration

>>> print(df.to_string())
                                    compound       result_value
 0  Nc1ccc(-c2cnn(Cc3ccc(OCc4ccccc4)nc3)c2)cn1     0.1 to 1 µg/mL
 1  Nc1ncccc1-c1cc(Cc2cnc(OCc3ccccc3F)c(F)c2)no1     0.1 to 1 µg/mL
 2  CC1=C(Oc2ccc(Cc3cc(-c4cccnc4N)on3)cn2)C(=O)C(C)O1 (centres unmarked)          > 1 µg/mL
 3   Nc1ncccc1-c1cc(Cc2ccc(CC3=CCCC3)cc2)no1  0.01 to 0.1 µg/mL
 4  Nc1ncccc1-c1cc(Cc2ccc(Cc3ccc4ncnn4c3)cc2)no1     0.1 to 1 µg/mL
 5  Nc1ccc(-c2cc(Cc3ccc(OCc4ccccc4)cc3)no2)c(N)n1       ≤ 0.01 µg/mL
 6  Nc1ncccc1-c1cc(Cc2ccc(CNc3nc4ccccc4[nH]3)cc2)no1          > 1 µg/mL
 7  Nc1ncccc1-c1cc(Cc2ccc(OCc3ncccn3)nc2)no1     0.1 to 1 µg/mL
 8  Nc1ncccc1-c1cc(Cc2ccc(COc3cccc(F)n3)cc2)no1  0.01 to 0.1 µg/mL
 9  Nc1ncccc1-c1cc(Cc2ccc(OCc3ccc(Cl)s3)nc2)no1  0.01 to 0.1 µg/mL
10  Cc1nc(COc2ccc(Cc3cc(-c4cccnc4N)on3)cn2)cs1     0.1 to 1 µg/mL
11  Nc1ncccc1-c1cc(Cc2ccc(OCc3ccnc(Cl)c3F)nc2)no1          > 1 µg/mL
12  Nc1ncccc1-c1cc(Cc2ccc(COc3cccnc3)cc2)no1     0.1 to 1 µg/mL
13   Nc1ncccc1-c1cc(Cc2ccc(-c3ccncc3)cc2)no1          > 1 µg/mL
14  Cc1csc(COc2ccc(Cc3cc(-c4cccnc4N)on3)cn2)n1  0.01 to 0.1 µg/mL
15  Nc1ncccc1-c1cc(Cc2ccc(Cc3cc(F)cc(F)c3)cc2)no1     0.1 to 1 µg/mL
16  Nc1ncccc1-c1cc(Cc2ccc(Oc3cc(F)cc(F)n3)cc2)no1     0.1 to 1 µg/mL
17  Nc1ncccc1-c1cc(Cc2ccc(OCc3ccncc3)nc2)no1  0.01 to 0.1 µg/mL
18  Nc1ncccc1-c1cc(Cc2cccc(OCc3cccc(F)c3)n2)no1          > 1 µg/mL
19  Nc1ncccc1-c1cc(Cc2ccc(COc3cccc(F)c3)cc2)no1  0.01 to 0.1 µg/mL
20  Cn1ccc(Cc2ccc(Cc3cc(-c4cccnc4N)on3)cc2)n1  0.01 to 0.1 µg/mL
21  Nc1ncccc1-c1cc(Cc2ccc(Cn3cc(CO)cn3)cc2)no1          > 1 µg/mL
22   Nc1ncccc1-c1cc(Cc2ccc(Oc3ncccn3)cc2)no1     0.1 to 1 µg/mL
